This collection of values is drawn from patent US20090081197A1.

Target: MC3-R (Homo sapiens, UniProt P41968)
Sequence (P41968 whole entry): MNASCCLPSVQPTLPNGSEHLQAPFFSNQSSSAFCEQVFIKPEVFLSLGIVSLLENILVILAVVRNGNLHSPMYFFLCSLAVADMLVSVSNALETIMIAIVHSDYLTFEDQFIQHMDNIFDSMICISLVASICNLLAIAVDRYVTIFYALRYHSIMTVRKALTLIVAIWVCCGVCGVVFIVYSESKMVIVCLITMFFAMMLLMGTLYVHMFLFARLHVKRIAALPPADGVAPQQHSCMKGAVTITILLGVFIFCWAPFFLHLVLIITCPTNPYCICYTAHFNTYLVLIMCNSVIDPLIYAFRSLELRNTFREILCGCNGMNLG
Assay: Competitive inhibition assay using [I^125]-NDP-α-MSH, hMC3-R membranes
Format: binding
Parameters: expressed in transfected cells
Conditions: 1 μM test compound; read-out: Inhibition at 1 μM (NDP-α-MSH) In Normal System, MC3-R
Non-standard residues stand in square brackets, D forms with d. Residues, ends and D or L forms follow the SMILES beside them. *: point of attachment. dPhe(4-Cl) = N[C@H](Cc1ccc(Cl)cc1)C(=O)O; Ahp = NCCCCCCC(=O)O; Bn = c1ccc(C*)cc1
The entries below come with measured inhibition at 1 µM values attached.

MOLECULE	inhibition at 1 µM [%]
Cc1cc(Cl)ccc1C[C@@H](N)C(=O)N1C[C@@H](C)N(C(=O)Cc2ccc3ccccc3c2)C[C@@H]1CCCNC(=N)N	34
Cc1[nH]c2ccccc2c1CCN1C[C@H](CCCNC(=N)N)N(C(=O)[C@H](N)Cc2ccc3ccccc3c2)C[C@H]1C	57
C[C@@H]1CN(C(=O)[C@H](N)Cc2ccc3ccccc3c2)[C@@H](CCCNC(=N)N)CN1C(=O)CCCc1c[nH]c2ccccc12	32
N=C(N)NCCC[C@H](NC(=O)[C@@H](Cc1ccc(Cl)cc1)NC(=O)[C@H](COCc1ccccc1)NC(=O)CCCCCCN)C(=O)N[C@@H](Cc1c[nH]c2ccccc12)C(=O)N[C@@H](CC(=O)O)C(=O)N[C@@H](Cc1ccccc1)C(N)=O [Example 14] (H-[Ahp]S(Bn)[dPhe(4-Cl)]RWDF-NH2)	66
N=C(N)NCCC[C@H](NC(=O)[C@@H](Cc1ccc(Cl)cc1)NC(=O)[C@H](COCc1ccccc1)NC(=O)CCCCCCN)C(=O)N[C@@H](Cc1c[nH]c2ccccc12)C(N)=O [Example 1] (H-[Ahp]S(Bn)[dPhe(4-Cl)]RW-NH2)	94

###

Target: MC4-R (Homo sapiens)
Test: cAMP agonist stimulation, high receptor density system (10 ng/mL doxycycline)
Conditions: 10 ng/mL doxycycline, high receptor density hMC4-R system; NDP-α-MSH maximal cAMP = 1.0
Non-standard residues stand in square brackets, D forms with d. Residues, ends and D or L forms follow the SMILES beside them. *: point of attachment. dPhe(4-Cl) = N[C@H](Cc1ccc(Cl)cc1)C(=O)O; Heptanoyl = CCCCCCC(=O)*; Ahp = NCCCCCCC(=O)O; Bn = c1ccc(C*)cc1

MOLECULE	ASSAY TARGET	Efficacy/Intrinsic Activity
C[C@H](NC(=O)[C@H](Cc1c[nH]c2ccccc12)NC(=O)[C@H](CCCNC(=N)N)NC(=O)[C@@H](Cc1ccc(Cl)cc1)NC(=O)[C@H](COCc1ccccc1)NC(=O)CCCCCCN)C(N)=O [Example 15] (H-[Ahp]S(Bn)[dPhe(4-Cl)]RWA-NH2)	MC4-R (Homo sapiens)	0.67
N=C(N)NCCC[C@H]1C(=O)N(CCc2c[nH]c3ccccc23)CCN1C(=O)[C@H](N)Cc1ccc(Cl)cc1Cl	MC4-R (Homo sapiens)	0.56
C[C@@H]1CN(C(=O)[C@H](N)Cc2ccc3ccccc3c2)[C@@H](CCCNC(=N)N)CN1C(=O)CCCc1c[nH]c2ccccc12	MC4-R (Homo sapiens)	0.38
N=C(N)NCCC[C@H](NC(=O)[C@@H](Cc1ccc(Cl)cc1)NC(=O)[C@H](COCc1ccccc1)NC(=O)CCCCCCN)C(=O)N[C@@H](Cc1c[nH]c2ccccc12)C(=O)N[C@@H](CC(=O)O)C(=O)N[C@@H](Cc1ccccc1)C(N)=O [Example 14] (H-[Ahp]S(Bn)[dPhe(4-Cl)]RWDF-NH2)	MC4-R (Homo sapiens)	0.64
CCCCCCC(=O)N[C@H](C(=O)N[C@H](Cc1ccc(Cl)cc1)C(=O)N[C@@H](CCCNC(=N)N)C(=O)N[C@@H](Cc1c[nH]c2ccccc12)C(N)=O)[C@@H](C)OCc1ccccc1 [Example 23] (Heptanoyl-T(Bn)[dPhe(4-Cl)]RW-NH2)	MC4-R (Homo sapiens)	0.75
Cc1cc(Cl)ccc1C[C@@H](N)C(=O)N1C[C@@H](C)N(C(=O)Cc2ccc3ccccc3c2)C[C@@H]1CCCNC(=N)N	MC4-R (Homo sapiens)	0.69
N=C(N)NCCC[C@H](NC(=O)[C@@H](Cc1ccc(Cl)cc1)NC(=O)[C@H](COCc1ccccc1)NC(=O)CCCCCCN)C(=O)N[C@@H](Cc1c[nH]c2ccccc12)C(=O)N[C@@H](CC(=O)O)C(N)=O [Example 13] (H-[Ahp]S(Bn)[dPhe(4-Cl)]RWD-NH2)	MC4-R (Homo sapiens)	0.72
N=C(N)NCCC[C@H]1CN(CCc2ccc3ccccc3c2)CCN1C(=O)[C@H](N)Cc1ccc(Cl)cc1Cl	MC4-R (Homo sapiens)	0.67
Cc1ccc(CCN2C[C@H](CCCNC(=N)N)N(C(=O)[C@H](N)Cc3ccc4ccccc4c3)C[C@H]2C)cc1	MC4-R (Homo sapiens)	0.46
C[C@@H]1CN(C(=O)[C@H](N)Cc2ccc(Cl)cc2)[C@@H](CCCNC(=N)N)CN1CCc1ccc2ccccc2c1	MC4-R (Homo sapiens)	0.75
CC(=O)N[C@H](Cc1ccc(Cl)cc1C)C(=O)N1C[C@@H](C)N(C(=O)Cc2ccc3ccccc3c2)C[C@@H]1CCCNC(=N)N	MC4-R (Homo sapiens)	0.27
C[C@@H]1CN(C(=O)[C@H](N)Cc2ccc3ccccc3c2)[C@@H](CCCNC(=N)N)CN1C(=O)Cc1c[nH]c2ccccc12	MC4-R (Homo sapiens)	0.43
N=C(N)NCCC[C@H]1C(=O)N2C(CC[C@@H]2COc2ccc3ccccc3c2)N1C(=O)[C@@H](Cc1ccc(Cl)cc1Cl)NC(=O)[C@@H]1CC[C@H](c2ccccc2)N1 (stereo partly drawn)	MC4-R (Homo sapiens)	0.22
C[C@@H]1CN(C(=O)[C@H](N)Cc2ccc(Cl)cc2Cl)[C@@H](CCCNC(=N)N)CN1CCc1ccc2ccccc2c1	MC4-R (Homo sapiens)	0.49
N=C(N)NCCC[C@H](NC(=O)[C@@H](Cc1ccc(Cl)cc1)NC(=O)[C@H](COCc1ccccc1)NC(=O)CCCCCCN)C(=O)N[C@@H](Cc1c[nH]c2ccccc12)C(N)=O [Example 1] (H-[Ahp]S(Bn)[dPhe(4-Cl)]RW-NH2)	MC4-R (Homo sapiens)	0.97

###

Target: MC4-R (Homo sapiens, UniProt P32245)
Sequence (P32245 whole entry): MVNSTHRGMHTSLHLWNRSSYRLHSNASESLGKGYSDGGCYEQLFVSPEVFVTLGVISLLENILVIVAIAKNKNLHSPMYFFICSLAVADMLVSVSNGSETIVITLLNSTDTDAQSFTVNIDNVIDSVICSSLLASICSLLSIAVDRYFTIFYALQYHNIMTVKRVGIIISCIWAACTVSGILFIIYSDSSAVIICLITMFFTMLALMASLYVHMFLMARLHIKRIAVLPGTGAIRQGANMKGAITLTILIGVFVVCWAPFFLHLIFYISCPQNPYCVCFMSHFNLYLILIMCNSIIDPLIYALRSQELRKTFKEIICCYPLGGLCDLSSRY
Experiment: cAMP agonist stimulation, low receptor density system (0.1 ng/mL doxycycline)
Settings: 0.1 ng/mL doxycycline, low receptor density hMC4-R system; NDP-α-MSH maximal cAMP = 1.0
Non-standard residues stand in square brackets, D forms with d. Residues, ends and D or L forms follow the SMILES beside them. *: point of attachment. Acetyl(2-naphthyl) = O=C(Cc1ccc2ccccc2c1)*; dPhe(4-Cl) = N[C@H](Cc1ccc(Cl)cc1)C(=O)O; Ac6c = NC1(C(=O)O)CCCCC1
TEST READOUT: Efficacy/Intrinsic Activity

MOLECULE	RESULT
CC(=O)N[C@H](Cc1ccc(Cl)cc1C)C(=O)N1C[C@@H](C)N(C(=O)Cc2ccc3ccccc3c2)C[C@@H]1CCCNC(=N)N	None
CC(=O)N[C@H](Cc1ccc2ccccc2c1)C(=O)N1C[C@@H](CC(C)C)N(CCc2ccc3ccccc3c2)C[C@@H]1CCCNC(=N)N	None
Cc1ccc(C[C@@H](N)C(=O)N2C[C@@H](C)N(CCc3ccc4ccccc4c3)C[C@@H]2CCCNC(=N)N)c(C)c1	None
CC(C)C[C@@H]1CN(C(=O)[C@H](N)Cc2ccc(Cl)cc2Cl)[C@@H](CCCNC(=N)N)CN1CCc1ccc2ccccc2c1	None
Cc1ccc(CCN2C[C@H](CCCNC(=N)N)N(C(=O)[C@H](N)Cc3ccc4ccccc4c3)C[C@H]2C)cc1	None
C[C@@H]1CN(C(=O)[C@H](N)Cc2ccc(Cl)cc2)[C@@H](CCCNC(=N)N)CN1CCc1ccc2ccccc2c1	0.29
N=C(N)NCCC[C@H]1C(=O)N2C(CC[C@@H]2COc2ccc3ccccc3c2)N1C(=O)[C@@H](Cc1ccc(Cl)cc1Cl)NC(=O)[C@@H]1CC[C@H](c2ccccc2)N1 (stereo partly shown)	None
Cc1cc(Cl)ccc1C[C@@H](N)C(=O)N1C[C@@H](C)N(C(=O)Cc2ccc3ccccc3c2)C[C@@H]1CCCNC(=N)N	0.23
N=C(N)NCCC[C@H](NC(=O)[C@@H](Cc1ccc(Cl)cc1)NC(=O)C1(NC(=O)Cc2ccc3ccccc3c2)CCCCC1)C(=O)N[C@@H](Cc1c[nH]c2ccccc12)C(N)=O [Example 24] ({Acetyl(2-naphthyl)}-[Ac6c][dPhe(4-Cl)]RW-NH2)	None
CC(=O)N[C@H](Cc1ccc(C)cc1C)C(=O)N1C[C@@H](C)N(C(=O)Cc2ccc3ccccc3c2)C[C@@H]1CCCNC(=N)N	None

###

Molecular target: MC5-R (Homo sapiens, UniProt P33032)
Sequence (P33032 whole entry): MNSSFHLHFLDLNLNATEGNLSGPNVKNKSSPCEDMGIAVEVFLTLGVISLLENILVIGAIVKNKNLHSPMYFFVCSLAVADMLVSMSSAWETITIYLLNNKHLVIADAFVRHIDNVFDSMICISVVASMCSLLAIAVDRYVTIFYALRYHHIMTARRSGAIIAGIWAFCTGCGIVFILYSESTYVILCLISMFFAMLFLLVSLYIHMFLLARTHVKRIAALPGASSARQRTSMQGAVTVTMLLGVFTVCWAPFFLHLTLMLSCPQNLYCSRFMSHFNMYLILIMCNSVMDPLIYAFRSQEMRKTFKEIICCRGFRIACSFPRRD
Test: Competitive inhibition assay using [I^125]-NDP-α-MSH, hMC5-R membranes
Format: binding
Parameters: expressed in transfected cells
Settings: 1 μM test compound; read-out: Inhibition at 1 μM (NDP-α-MSH) In Normal System, MC5-R
Non-standard residues stand in square brackets, D forms with d. Residues, ends and D or L forms follow the SMILES beside them. *: point of attachment. dPhe(4-Cl) = N[C@H](Cc1ccc(Cl)cc1)C(=O)O; Ahp = NCCCCCCC(=O)O; Bn = c1ccc(C*)cc1
TEST READOUT: inhibition at 1 µM (%)

COMPOUND	NUMERIC READOUT
C[C@H](NC(=O)[C@H](Cc1c[nH]c2ccccc12)NC(=O)[C@H](CCCNC(=N)N)NC(=O)[C@@H](Cc1ccc(Cl)cc1)NC(=O)[C@H](COCc1ccccc1)NC(=O)CCCCCCN)C(N)=O [Example 15] (H-[Ahp]S(Bn)[dPhe(4-Cl)]RWA-NH2)	79
CCNC(=O)[C@@H]1CCCCNC(=O)C[C@H](NC(C)=O)C(=O)N[C@@H](Cc2c[nH]cn2)C(=O)N[C@H](Cc2ccccc2)C(=O)N[C@@H](CCCNC(=N)N)C(=O)N[C@@H](Cc2c[nH]c3ccccc23)C(=O)N1 [Example 40]	16
Cc1[nH]c2ccccc2c1CCN1C[C@H](CCCNC(=N)N)N(C(=O)[C@H](N)Cc2ccc3ccccc3c2)C[C@H]1C [Example 8]	76
CC(=O)N[C@H](Cc1ccc(C)cc1C)C(=O)N1C[C@@H](C)N(CCc2ccc3ccccc3c2)C[C@@H]1CCCNC(=N)N [Example 25]	89
C[C@@H]1CN(C(=O)[C@H](N)Cc2ccc3ccccc3c2)[C@@H](CCCNC(=N)N)CN1C(=O)Cc1c[nH]c2ccccc12 [Example 6]	6
Cc1cc(Cl)ccc1C[C@@H](N)C(=O)N1C[C@@H](C)N(CCc2ccc3ccccc3c2)C[C@@H]1CCCNC(=N)N [Example 26]	77
CCCC[C@H](NC(C)=O)C(=O)N[C@H]1CC(=O)NCCCC[C@@H](C(=O)NCC)NC(=O)[C@H](Cc2cccc3ccccc23)NC(=O)[C@H](CCCNC(=N)N)NC(=O)[C@@H](Cc2ccccc2)NC(=O)[C@H](Cc2c[nH]cn2)NC1=O [Example 39]	93
N=C(N)NCCC[C@H]1C(=O)N(CCc2c[nH]c3ccccc23)CCN1C(=O)[C@H](N)Cc1ccc(Cl)cc1Cl [Example 2]	35
Cc1ccc(CCN2C[C@H](CCCNC(=N)N)N(C(=O)[C@H](N)Cc3ccc4ccccc4c3)C[C@H]2C)cc1 [Example 5]	65
C[C@@H]1CN(C(=O)[C@H](N)Cc2ccc3ccccc3c2)[C@@H](CCCNC(=N)N)CN1C(=O)Cc1ccc2ccccc2c1 [Example 33]	50
Cc1cc(Cl)ccc1C[C@@H](N)C(=O)N1C[C@@H](C)N(CCc2c[nH]c3ccccc23)C[C@@H]1CCCNC(=N)N [Example 9]	75
CC(C)C[C@@H]1CN(C(=O)[C@H](N)Cc2ccc(Cl)cc2Cl)[C@@H](CCCNC(=N)N)CN1CCc1ccc2ccccc2c1 [Example 4]	75
C[C@@H]1CN(C(=O)[C@H](N)Cc2ccc3ccccc3c2)[C@@H](CCCNC(=N)N)CN1C(=O)CCCc1c[nH]c2ccccc12 [Example 7]	62
CC(=O)N[C@H](Cc1ccc2ccccc2c1)C(=O)N1C[C@@H](C)N(C(=O)Cc2ccc3ccccc3c2)C[C@@H]1CCCNC(=N)N [Example 32]	44
N=C(N)NCCC[C@H](NC(=O)[C@@H](Cc1ccc(Cl)cc1)NC(=O)[C@H](COCc1ccccc1)NC(=O)CCCCCCN)C(=O)N[C@@H](Cc1c[nH]c2ccccc12)C(N)=O [Example 1] (H-[Ahp]S(Bn)[dPhe(4-Cl)]RW-NH2)	73
CCCC[C@H](NC(C)=O)C(=O)N[C@H]1CC(=O)NCCCC[C@@H](C(=O)N(C)C)NC(=O)[C@H](Cc2cccc3ccccc23)NC(=O)[C@H](CCCNC(=N)N)NC(=O)[C@@H](Cc2ccccc2)NC(=O)[C@H](Cc2c[nH]cn2)NC1=O [Example 37]	92
N=C(N)NCCC[C@H]1CN(CCc2ccc3ccccc3c2)CCN1C(=O)[C@H](N)Cc1ccc(Cl)cc1Cl [Example 17]	75
